test protocol: Drug repurposing screens with cells derived from glioblastoma tumor samples (AID 1345199); further: on the % scale 0 is the no-effect control and ±100 the full control effect; nearly all actives have a fitted effect of over 40% in size
condition set: GBM patient neurospheres viability, ATP luminescence, 48 h; at 45.9 µM (top of the series); tumour line B
Inconclusive results are not listed. Where a SMILES comes first, the peptide text is derived from it. Bridges are numbered along the chain shown (N, C = ends). [ ]: non-standard residue; d: D form. hArg = N=C(N)NCCCC[C@H](N)C(=O)O; Mpa = O=C(O)CCS
For each of the compounds below, state its activity, negative = cell killing.
Hi! Could you send only the number? It should be in %, unit omitted.

Can you share its activity, negative = cell killing? I mean this compound: Cc1onc(-c2ccccc2)c1-c1ccc(S(N)(=O)=O)cc1
-8.7

Similarly, CN1C(=O)CC(c2ccccc2)C1=O (stereo not drawn) ?
3.75

Continue with CN1CCN(C(=O)C2CCCCC2)CC1
-7.62

Please answer likewise for O=C(O)c1ccccc1C(=O)Nc1ccc(S(=O)(=O)Nc2nccs2)cc1
-6.87

Then what about the compound CC(=O)Nc1ccc(OCCOCCOc2ccc(NC(C)=O)cc2)cc1 ?
-5.83

Record: O=C(Cn1ccnc1[N+](=O)[O-])NCCO
-12.6

For CCCCCC(C)N (stereo not drawn) then?
-17

Likewise for NC(=O)[C@@H]1CSSCCC(=O)N[C@@H](CCCCN=C(N)N)C(=O)NCC(=O)N[C@@H](CC(=O)O)C(=O)N[C@@H](Cc2c[nH]c3ccccc23)C(=O)N2CCC[C@H]2C(=O)N1 ([Mpa][hArg]GDWPC-NH2; disulfide 1-7) ?
1.12

Subsequent entry: CC(C)CCCC(C)CCCC(C)CCCCC(C)CCCC(C)CCCC(C)C (stereo not drawn)
2.81

Request: CC(=O)N[C@H]1[C@H]([C@H](O)[C@H](O)CO)OC(C(=O)O)=C[C@@H]1N=C(N)N
-18.7

Another compound to look at: CCOc1cc(NC(C)=O)ccc1C(=O)OC
-7.75

Ok, now Nc1ncnc(Nc2ccccc2)n1
-14.8

Check CCOC(=O)c1cccnc1 too.
-7.07

====

experimental target: Glucocorticoid receptor (Homo sapiens)
test protocol: GR-GFP Redistribution (AID 450); further: potency means the concentration at half of the fitted maximal effect
condition set: U2OS GR-GFP nuclear translocation, laser cytometry, 2 h
The source made the active and inactive calls.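 The calls were made as follows: active = compounds whose dose series gives a full or clear partial fitted curve of increased nuclear translocation; inconclusive = weak partial curve or effect only at the top dose; inactive = no dose-dependent translocation response.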
quantity name: Potency

# query: Potency of entry OC(CCN1CCCC1)(c1ccccc1)C1CCCCC1 (stereo unspecified)
> 20.6 µM (inactive)

Repeat for the following molecule: O=C1c2ccccc2S(=O)(=O)N1CCCCN1CCN(c2ncccn2)CC1
> 46 µM (inactive)

Also need CN1CCCN=C1COC(=O)C(O)(c1ccccc1)C1CCCCC1 (stereo unspecified) , thanks.
> 20.6 µM (inactive)

Same lookup for CC(=O)[C@@]1(O)CC[C@H]2[C@@H]3C[C@H](C)C4=CC(=O)C=C[C@]4(C)[C@@]3(F)[C@@H](O)C[C@@]21C , please.
> 20.6 µM (inactive)

// query: CC(=O)NS(=O)(=O)c1ccc(N)cc1
> 20.6 µM (inactive)

Now this one: O=C(O)c1ccccc1C(=O)Nc1ccc(S(=O)(=O)Nc2nccs2)cc1
> 20.6 µM (inactive)

Now consider Cc1c(NC(=O)c2cccnc2)c(=O)n(-c2ccccc2)n1C and answer again.
> 20.6 µM (inactive)

How about NC(N)=NS(=O)(=O)c1ccc(N)cc1 ?
> 20.6 µM (inactive)

// query: C[C@@H]1CCC[C@H](C)N1
> 20.6 µM (inactive)

Now consider C[N+](C)(C)CC[N+]1(C)Cc2c(Cl)c(Cl)c(Cl)c(Cl)c2C1 and answer again.
> 46 µM (inactive)

Now consider COc1ccc2cc(CCC(C)=O)ccc2c1 .
> 20.6 µM (inactive)
